Hello, the source for this data is patent US20180282430A1, in case you need it.

target_desc: T1, Human TFPI (tissue factor pathway inhibitor) (human, UniProt P10646 29-304, limits assumed)
T1 construct: Coated at 1 ug/ml on Maxisorb plates for the ELISA; For the Biacore work the human TFPI came from American Diagnostica
T1 sequence (looked up): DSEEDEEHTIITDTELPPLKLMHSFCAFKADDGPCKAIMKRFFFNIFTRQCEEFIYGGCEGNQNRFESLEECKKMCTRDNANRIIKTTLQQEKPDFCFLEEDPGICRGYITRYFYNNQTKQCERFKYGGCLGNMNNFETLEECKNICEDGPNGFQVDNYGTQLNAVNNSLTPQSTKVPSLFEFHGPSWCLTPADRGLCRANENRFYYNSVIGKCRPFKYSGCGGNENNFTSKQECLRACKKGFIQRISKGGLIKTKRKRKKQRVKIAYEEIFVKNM
test_protocol: pH 6.0 TFPI dissociation ELISA; ratio of the signals at pH 7.0 and pH 6.0
Procedure: Human TFPI, 1 μg/ml, was used to coat Maxisorb™ microtiter plates. Expression media, 100 μl, from each member of the His scan library, was added to two wells on the plate, in a pair wise fashion. The plate was incubated on a shaker at room temperature for 1 hr. The plate was washed 3× with PBST. PBS (pH 7.0) was added to one well of the pair, 100 mM pH6.0 Citrate buffer was added to the second well of the same pair. The plate was incubated at 37° C. with shaking for one hr. […]
measurement_name: Ratio pH 7.0/pH 6.0
Would you mind answering with just the numeric figure?

Form field Ratio pH 7.0/pH 6.0, entry 2A8-g200 Fab VH-Y32H (Fab, V domains shown, Member of the 2A8-g200 Fab histidine scanning library) VH: EVQLVESGGGLVQPGGSLRLSCAASGFTFSSHGMDWVRQAPGKGLEWVSSIRGSRGSTYYADSVKGRFTISRDNSKNTLYLQMNSLRAEDTAVYYCARLYRYWFDYWGQGTLVTVSS VL: SYELTQPPSVSVSPGQTARITCSGDNLPKYYAHWYQQKPGQAPVVVIFYDVNRPSGIPERFSGSNSGNTATLTISGTQAMDEADYYCQAWWSSTPVFGGGTKLTVLG : 1.38

# context switch: different binder, same Ratio pH 7.0/pH 6.0
Form field Ratio pH 7.0/pH 6.0, entry 2A8-g200 Fab VH-S50H (Fab, V domains shown) VH: EVQLVESGGGLVQPGGSLRLSCAASGFTFSSYGMDWVRQAPGKGLEWVSHIRGSRGSTYYADSVKGRFTISRDNSKNTLYLQMNSLRAEDTAVYYCARLYRYWFDYWGQGTLVTVSS VL: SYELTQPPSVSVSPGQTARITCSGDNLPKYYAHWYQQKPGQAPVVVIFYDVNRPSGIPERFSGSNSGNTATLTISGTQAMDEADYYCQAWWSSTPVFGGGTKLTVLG : 1.32
